system: DIPGX7 (H3.3 K27M diffuse intrinsic pontine glioma line); assay: growth inhibition (% activity, log2 RLU normalised to DMSO / staurosporine); higher = more growth inhibition; conditions: 33 µM
Record form. Attribute: growth inhibition. Fill in for each entry.
Report only the number, with the unit % understood.

Quick one: growth inhibition of C=C(C)[C@@H]1[C@H]2OC(=O)[C@@H]1[C@]1(O)C[C@H]3O[C@]34C(=O)O[C@H]2[C@]14C ?
-0.608

Next record, please: CCN(C)C(=O)Oc1cccc([C@H](C)N(C)C)c1
1.09

Follow-up item: C/C=C(\C)C(=O)N[C@@H](c1ccccc1)[C@@H](O)C(=O)O[C@H]1C[C@@]2(O)[C@@H](OC(=O)c3ccccc3)[C@@H]3[C@]4(OC(C)=O)CO[C@@H]4C[C@H](O)[C@@]3(C)C(=O)[C@H](OC(C)=O)C(=C1C)C2(C)C
8.08

Would you mind doing CN(C)C(=O)Oc1cccc([N+](C)(C)C)c1 as well?
-0.239

Now try CN1[C@@H]2C[C@@H](OC(=O)[C@H](CO)c3ccccc3)C[C@H]1[C@@H]1O[C@@H]12 .
-0.341

Quick one: CN(C)C1C(=O)C(C(N)=O)=C(O)C2(O)C(=O)C3=C(O)c4c(O)cccc4C(C)(O)C3CC12 (stereo unspecified)
0.404

# iterate: Cc1cccc(C)c1NC(=O)CN1CCCC1=O
-0.96

Also Cc1cc(O)ccc1Cl ?
0.716

Can you handle CCC(COC(=O)c1cc(OC)c(OC)c(OC)c1)(c1ccccc1)N(C)C (stereo unspecified) next?
26.9

Repeat for the following molecule: CCC1(c2cccc(O)c2)CCCCN(C)C1 (stereo unspecified)
-0.204

Param item: O=C(O[C@H]1C[C@H]2CC[C@@H](C1)[N+]21CCCC1)C(O)(c1ccccc1)c1ccccc1
-0.848

Also C=CC[C@]1(O)CC[C@H]2[C@@H]3CCC4=CC(=O)CCC4=C3C=C[C@@]21C ?
-0.403

What do you get for CCOC(=O)c1cncn1[C@H](C)c1ccccc1 ?
2.54

Param item: CNCC(=O)c1ccc(O)c(O)c1
-0.724

Same thing, different molecule: CN1C(=O)CCS(=O)(=O)C1c1ccc(Cl)cc1 (stereo unspecified)
0.531

Same lookup for O=c1[nH]c2ccccc2n1CCCN1CCC(n2c(=O)[nH]c3cc(Cl)ccc32)CC1 , please.
0.225

What do you have for O=C(O[C@H]1C[N+]2(CCCOc3ccccc3)CCC1CC2)C(O)(c1cccs1)c1cccs1 ?
-0.665

Please answer likewise for COc1cc2c(cc1OC)[C@@]13CCN4CC5=CCO[C@H]6CC(=O)N2[C@H]1[C@H]6[C@H]5C[C@H]43
3.92

How about CN1c2ccccc2C(NCCCCCCC(=O)O)c2ccc(Cl)cc2S1(=O)=O (stereo unspecified) ?
-0.607

Same question, CN(C)C(=O)Oc1ccc[n+](C)c1 this time
-0.161

One more molecule: COc1ccc(C(=O)N2CCCC2=O)cc1
2.24
